Molecular target: h-GABAA α1β3γ2 (Homo sapiens, UniProt P14867+P18507)
Construct: expressed in transfected cells; host or cells: HEK293F cells, membranes
Assay: Radioligand binding assay, [3H]Flumazenil competition, HEK293F membranes
Conditions: Table 1; Ki α1β3γ2 (nM)/Ki α2β2γ1 (nM)
Rule: γ2/γ1 Selectivity Ratio of 40 or more gives t; anything lower gives f.

Q) Check the entry Cc1ccc2c(c1Cl)C(c1c(F)cccc1F)=NCc1nncn1-2 : does γ2/γ1 Selectivity Ratio equal or exceed 40?
A) f

Q) Does the reported γ2/γ1 Selectivity Ratio for O=c1[nH]nc2n1-c1ccc(Cl)c(Cl)c1C(c1c(F)cccc1F)=NC2 fall at or above the 40 mark?
A) t

Q) Is it the case that Fc1ccccc1C1=NCc2nnc(-c3cccnn3)n2-c2ccc(C(F)(F)F)c(Cl)c21 has γ2/γ1 Selectivity Ratio reaching or exceeding 40?
A) t

Q) Say whether COCCc1nnc2n1-c1ccc(Cl)c(Cl)c1C(c1c(F)cccc1F)=NC2 shows γ2/γ1 Selectivity Ratio of 40 or more.
A) f

Q) Textbook exercise: given the entry Fc1cccc(F)c1C1=NCc2nncn2-c2ccc(I)c(Cl)c21 , state whether its γ2/γ1 Selectivity Ratio is greater than or equal to 40.
A) f

Q) Dear colleague, could you confirm whether Cc1ccc2c(c1Cl)C(c1c(F)cccc1F)=NCc1n[nH]c(=O)n1-2 has γ2/γ1 Selectivity Ratio at or above 40?
A) f

Q) Is reported γ2/γ1 Selectivity Ratio greater than or equal to 40 here: Fc1cccnc1C1=NCc2nnc(-c3cccnn3)n2-c2ccc(Br)c(Cl)c21
A) t

Q) Form field: γ2/γ1 Selectivity Ratio at least 40? Entry: Fc1cccc(F)c1C1=NCc2nnc(-c3cccnn3)n2-c2ccc(Br)c(Br)c21
A) t

Q) Hi, just wondering whether Cc1nnc2n1-c1ccc(C(C)(F)F)c(Cl)c1C(c1c(F)cccc1F)=NC2 shows γ2/γ1 Selectivity Ratio of 40 or higher.
A) t

Q) Does COc1ccc2c(c1Cl)C(c1c(F)cccc1F)=NCc1nnc(-c3ccncn3)n1-2 have a reported γ2/γ1 Selectivity Ratio of at least 40?
A) f

Q) Does the reported γ2/γ1 Selectivity Ratio for O=c1[nH]nc2n1-c1ccc(Br)c(Cl)c1C(c1c(F)cccc1F)=NC2 fall at or above the 40 mark?
A) t

Q) Test whether the compound Fc1cccc(F)c1C1=NCc2nncn2-c2ccc(C(F)(F)F)c(Cl)c21 records γ2/γ1 Selectivity Ratio of 40 or higher.
A) f

Q) Is γ2/γ1 Selectivity Ratio at least 40? Consider Cc1nnc2n1-c1ccc(Br)c(Cl)c1C(c1c(F)cccc1F)=NC2
A) f

Q) API: above_or_equal(metric=γ2/γ1 Selectivity Ratio, cutoff=40) for item Fc1cccnc1C1=NCc2nnc(-c3ccncn3)n2-c2ccc(Cl)c(Cl)c21
A) t

Q) Entry Fc1cccc(F)c1C1=NCc2nnc(-c3ccncn3)n2-c2ccc(Br)c(Br)c21 : is its γ2/γ1 Selectivity Ratio no less than 40?
A) t

Q) Record CO[C@H]1C[C@H](c2nnc3n2-c2ccc(Cl)c(Cl)c2C(c2c(F)cccc2F)=NC3)C1 ; criterion: γ2/γ1 Selectivity Ratio no lower than 40. Met?
A) f

Q) Item Cc1nnc2n1-c1ccc(Br)c(Cl)c1C(c1c(F)cccc1Cl)=NC2 with γ2/γ1 Selectivity Ratio of 40 or above?
A) f

Q) Is γ2/γ1 Selectivity Ratio at least 40? Consider Cc1nnc2n1-c1ccc(Cl)c(Cl)c1C(c1ccccc1F)=NC2
A) f

Q) Would you say OCc1nnc2n1-c1ccc(Br)c(Cl)c1C(c1c(F)cccc1F)=NC2 shows γ2/γ1 Selectivity Ratio at minimum 40?
A) f

Q) Can Fc1cccnc1C1=NCc2nncn2-c2ccc(Br)c(Cl)c21 be said to have γ2/γ1 Selectivity Ratio at or above 40?
A) f

Q) Does the reported γ2/γ1 Selectivity Ratio for Fc1cccc(F)c1C1=NCc2nnc(-c3ccncn3)n2-c2ccc(Cl)c(Cl)c21 fall at or above the 40 mark?
A) t

Q) Check this compound for γ2/γ1 Selectivity Ratio at or above 40: Cc1ccc2c(c1Cl)C(c1c(F)cccc1F)=NCc1nnc(-c3ccncn3)n1-2
A) t

Q) # check: γ2/γ1 Selectivity Ratio of Fc1cccc(F)c1C1=NCc2nnc(-c3cccnn3)n2-c2ccc(Cl)c(Cl)c21 is greater than or equal to 40
A) t

Q) Kindly determine if γ2/γ1 Selectivity Ratio recorded for Cc1nnc2n1-c1ccc(C(F)(F)F)c(Cl)c1C(c1ncccc1F)=NC2 is above or exactly 40.
A) t

Q) Form field: γ2/γ1 Selectivity Ratio at least 40? Entry: Cn1cc(-c2nnc3n2-c2ccc(C(F)(F)F)c(Cl)c2C(c2ncccc2F)=NC3)cn1
A) t

Q) Does Clc1cccnc1C1=NCc2nnc(-c3cccnn3)n2-c2ccc(Br)c(Cl)c21 have a reported γ2/γ1 Selectivity Ratio of at least 40?
A) f

Q) Given the entry Cc1nnc2n1-c1ccc(Cl)c(Cl)c1C(c1ncccc1F)=NC2 , answer whether its γ2/γ1 Selectivity Ratio meets or surpasses 40.
A) f

Q) Hello, I need to know if Cc1nnc2n1-c1ccc(Cl)c(Cl)c1C(c1c(F)cccc1F)=NC2 has measured γ2/γ1 Selectivity Ratio not below 40. Thanks!
A) f

Q) Kindly determine if γ2/γ1 Selectivity Ratio recorded for Cn1cc(-c2nnc3n2-c2ccc(Cl)c(Cl)c2C(c2c(F)cccc2F)=NC3)cn1 is above or exactly 40.
A) f

Q) # bool: γ2/γ1 Selectivity Ratio of Fc1cccc(F)c1C1=NCc2nnc(-c3cccnn3)n2-c2ccc(I)c(Cl)c21 >= 40
A) t

Q) Form field: γ2/γ1 Selectivity Ratio at least 40? Entry: Fc1cccc(F)c1C1=NCc2nncn2-c2ccc(C(F)F)c(Cl)c21
A) f

Q) Reported γ2/γ1 Selectivity Ratio at or above 40? Fc1ccccc1C1=NCc2nnc(C3CC3)n2-c2ccc(Br)c(Cl)c21
A) f

Q) Would you say COc1ccc2c(c1Cl)C(c1c(F)cccc1F)=NCc1nnc(-c3cccnn3)n1-2 shows γ2/γ1 Selectivity Ratio at minimum 40?
A) f

Every entry's value here was drawn from patent US20230141603A1.
